test.name: Luciferase activity of purified RLuc mutants (light output integrated over 10 s, luminometer)
Assay type: biochemical
assay.setup: native coelenterazine; relative to native enzyme
Decide using Activity (relative to RLuc) native alone. Strictly below 0.2: condition met. Equal to or above 0.2: condition not met.

Completed entries (count: 3):
C124A/Q235A: RLuc mutant C124A/Q235A (protein) MASKVYDPEQRKRMITGPQWWARCKQMNVLDSFINYYDSEKHAENAVIFLHGNAASSYLWRHVVPHIEPVARCIIPDLIGMGKSGKSGNGSYRLLDHYKYLTAWFELLNLPKKIIFVGHDWGAALAFHYSYEHQDKIKAIVHAESVVDVIESWDEWPDIEEDIALIKSEEGEKMVLENNFFVETMLPSKIMRKLEPEEFAAYLEPFKEKGEVRRPTLSWPREIPLVKGGKPDVVAIVRNYNAYLRASDDLPKMFIESDPGFFSNAIVEGAKKFPNTEFVKVKGLHFSQEDAPDEMGKYIKSFVERVLKNEQ ... condition not met
F33R/I34M/C124A: RLuc mutant F33R/I34M/C124A (protein) MASKVYDPEQRKRMITGPQWWARCKQMNVLDSRMNYYDSEKHAENAVIFLHGNAASSYLWRHVVPHIEPVARCIIPDLIGMGKSGKSGNGSYRLLDHYKYLTAWFELLNLPKKIIFVGHDWGAALAFHYSYEHQDKIKAIVHAESVVDVIESWDEWPDIEEDIALIKSEEGEKMVLENNFFVETMLPSKIMRKLEPEEFAAYLEPFKEKGEVRRPTLSWPREIPLVKGGKPDVVQIVRNYNAYLRASDDLPKMFIESDPGFFSNAIVEGAKKFPNTEFVKVKGLHFSQEDAPDEMGKYIKSFVERVLKNEQ ... condition met
C124A/A143M: RLuc mutant C124A/A143M (protein) MASKVYDPEQRKRMITGPQWWARCKQMNVLDSFINYYDSEKHAENAVIFLHGNAASSYLWRHVVPHIEPVARCIIPDLIGMGKSGKSGNGSYRLLDHYKYLTAWFELLNLPKKIIFVGHDWGAALAFHYSYEHQDKIKAIVHMESVVDVIESWDEWPDIEEDIALIKSEEGEKMVLENNFFVETMLPSKIMRKLEPEEFAAYLEPFKEKGEVRRPTLSWPREIPLVKGGKPDVVQIVRNYNAYLRASDDLPKMFIESDPGFFSNAIVEGAKKFPNTEFVKVKGLHFSQEDAPDEMGKYIKSFVERVLKNEQ ... condition not met

Hello, I'm reviewing records and need to know if Activity (relative to RLuc) native of C124A/S287L: RLuc mutant C124A/S287L (protein) MASKVYDPEQRKRMITGPQWWARCKQMNVLDSFINYYDSEKHAENAVIFLHGNAASSYLWRHVVPHIEPVARCIIPDLIGMGKSGKSGNGSYRLLDHYKYLTAWFELLNLPKKIIFVGHDWGAALAFHYSYEHQDKIKAIVHAESVVDVIESWDEWPDIEEDIALIKSEEGEKMVLENNFFVETMLPSKIMRKLEPEEFAAYLEPFKEKGEVRRPTLSWPREIPLVKGGKPDVVQIVRNYNAYLRASDDLPKMFIESDPGFFSNAIVEGAKKFPNTEFVKVKGLHFLQEDAPDEMGKYIKSFVERVLKNEQ is below 0.2. Could you check?
condition not met

Hello, I'm reviewing records and need to know if Activity (relative to RLuc) native of C124A/K300A: RLuc mutant C124A/K300A (protein) MASKVYDPEQRKRMITGPQWWARCKQMNVLDSFINYYDSEKHAENAVIFLHGNAASSYLWRHVVPHIEPVARCIIPDLIGMGKSGKSGNGSYRLLDHYKYLTAWFELLNLPKKIIFVGHDWGAALAFHYSYEHQDKIKAIVHAESVVDVIESWDEWPDIEEDIALIKSEEGEKMVLENNFFVETMLPSKIMRKLEPEEFAAYLEPFKEKGEVRRPTLSWPREIPLVKGGKPDVVQIVRNYNAYLRASDDLPKMFIESDPGFFSNAIVEGAKKFPNTEFVKVKGLHFSQEDAPDEMGKYIASFVERVLKNEQ is below 0.2. Could you check?
condition not met

Hello, I'm reviewing records and need to know if Activity (relative to RLuc) native of A54P/A55T/C124A: RLuc mutant A54P/A55T/C124A (protein) MASKVYDPEQRKRMITGPQWWARCKQMNVLDSFINYYDSEKHAENAVIFLHGNPTSSYLWRHVVPHIEPVARCIIPDLIGMGKSGKSGNGSYRLLDHYKYLTAWFELLNLPKKIIFVGHDWGAALAFHYSYEHQDKIKAIVHAESVVDVIESWDEWPDIEEDIALIKSEEGEKMVLENNFFVETMLPSKIMRKLEPEEFAAYLEPFKEKGEVRRPTLSWPREIPLVKGGKPDVVQIVRNYNAYLRASDDLPKMFIESDPGFFSNAIVEGAKKFPNTEFVKVKGLHFSQEDAPDEMGKYIKSFVERVLKNEQ is below 0.2. Could you check?
condition not met

Hello, I'm reviewing records and need to know if Activity (relative to RLuc) native of C124A/E195S/P196D: RLuc mutant C124A/E195S/P196D (protein) MASKVYDPEQRKRMITGPQWWARCKQMNVLDSFINYYDSEKHAENAVIFLHGNAASSYLWRHVVPHIEPVARCIIPDLIGMGKSGKSGNGSYRLLDHYKYLTAWFELLNLPKKIIFVGHDWGAALAFHYSYEHQDKIKAIVHAESVVDVIESWDEWPDIEEDIALIKSEEGEKMVLENNFFVETMLPSKIMRKLSDEEFAAYLEPFKEKGEVRRPTLSWPREIPLVKGGKPDVVQIVRNYNAYLRASDDLPKMFIESDPGFFSNAIVEGAKKFPNTEFVKVKGLHFSQEDAPDEMGKYIKSFVERVLKNEQ is below 0.2. Could you check?
condition met

Cited source: patent US7842469B2
